system: P388 leukemia ip, CD2F1 mice, survival T/C; assay: NCI In Vivo Anticancer Drug Screen. Data for tumor model P388 Leukemia (intraperitoneal) in CD2F1 (CDF1) mice; conditions: endpoint: median survival time; dose: 50.0 mg/kg/injection; schedule: Q01DX005 (ip); vehicle: Klucel (hydroxypropylcellulose) (HPC); higher = longer survival
Toxic doses and inconclusive results are not listed. Peptide text beside a SMILES is read from it. * marks the point of attachment. Cbz = O=C(OCc1ccccc1)*
Endpoint name: T/C

* CC1CCCN(c2cc(N(C)C)c([N+](=O)[O-])cc2F)C1 (stereo not given) | 99 % of control
* O=C1C(=O)c2c(ccc3ccccc23)-c2ccccc21 | 100 % of control

Tell me T/C reported for C=C1CCC2C(C)(CO)C(O)CCC2(C)C1C/C=C1\C(=O)OCC1O (stereo not given) 108 % of control

Tell me T/C reported for "O=[N+]([O-])c1ccccc1/C=C\c1ccccn1" 104 % of control

Tell me T/C reported for "O=C(N=C(Oc1ccccc1)Oc1ccccc1)N=C(Oc1ccccc1)Oc1ccccc1" 94 % of control

Tell me T/C reported for "CCO[C@H]1c2cc3c(cc2[C@@H](c2cc(OC)c(OC)c(OC)c2)[C@H]2C(=O)OC[C@@H]21)OCO3" 96 % of control

Tell me T/C reported for CCOC(=O)C(Cc1c[nH]c2ccccc12)NC(=O)C(Cc1ccccc1)NC(=O)C(Cc1cnc[nH]1)NC(=O)OCc1ccccc1 (stereo not drawn) (Cbz-His-Phe-Trp-OEt; configuration not given here) 93 % of control

Tell me T/C reported for Cc1ccc(C2=C(C#N)C(c3ccccc3)C(C#N)=C(N)O2)cc1 (stereo not given) 97 % of control

Tell me T/C reported for "COC(=O)C1=C(C(=O)OC)P2(C)(C)SC(=S)N2C1(c1ccccc1)c1ccccc1" 102 % of control

Tell me T/C reported for CC1CCC(C(C)C)C(OC(=O)c2cc[n+](C)cc2)C1 (stereo not given) 107 % of control
